Experiment: Plasma clearance in Sprague-Dawley rat at 1 mg/kg, iv
Format: ADME, organism-based
Parameters: dose 1 mg/kg, route intravenous
What clearance was measured for each of the following?
Numbers only, in mL/min/kg.

Worked examples follow.
> print(dat)
                                 mol.smiles  value.measured
1  CC1=C2C[C@H]3[C@@H](CC[C@@H]4Cc5[nH]ncc5C[C@@]43C)[C@@H]2CC[C@@]2(C1)O[C@@H]1C[C@H](C)CN[C@H]1[C@H]2C             125
2  CC1=C2C[C@H]3[C@@H](CC[C@@H]4C[C@H](NS(C)(=O)=O)CC[C@@]43C)[C@@H]2CC[C@@]2(C1)O[C@@H]1C[C@H](C)CN[C@H]1[C@H]2C             3.5

Next up:
Which clearance is listed for CC1=C2C[C@H]3[C@@H](CC[C@@H]4CNC(=O)CC[C@@]43C)[C@@H]2CC[C@@]2(C1)O[C@@H]1C[C@H](C)CN[C@H]1[C@H]2C ?
10.5
